tgt: Human Nav1.8 (Homo sapiens, UniProt Q9Y5Y9)
Construct: expressed in transfected cells; host or cells: HEK293
Sequence (Q9Y5Y9 whole entry): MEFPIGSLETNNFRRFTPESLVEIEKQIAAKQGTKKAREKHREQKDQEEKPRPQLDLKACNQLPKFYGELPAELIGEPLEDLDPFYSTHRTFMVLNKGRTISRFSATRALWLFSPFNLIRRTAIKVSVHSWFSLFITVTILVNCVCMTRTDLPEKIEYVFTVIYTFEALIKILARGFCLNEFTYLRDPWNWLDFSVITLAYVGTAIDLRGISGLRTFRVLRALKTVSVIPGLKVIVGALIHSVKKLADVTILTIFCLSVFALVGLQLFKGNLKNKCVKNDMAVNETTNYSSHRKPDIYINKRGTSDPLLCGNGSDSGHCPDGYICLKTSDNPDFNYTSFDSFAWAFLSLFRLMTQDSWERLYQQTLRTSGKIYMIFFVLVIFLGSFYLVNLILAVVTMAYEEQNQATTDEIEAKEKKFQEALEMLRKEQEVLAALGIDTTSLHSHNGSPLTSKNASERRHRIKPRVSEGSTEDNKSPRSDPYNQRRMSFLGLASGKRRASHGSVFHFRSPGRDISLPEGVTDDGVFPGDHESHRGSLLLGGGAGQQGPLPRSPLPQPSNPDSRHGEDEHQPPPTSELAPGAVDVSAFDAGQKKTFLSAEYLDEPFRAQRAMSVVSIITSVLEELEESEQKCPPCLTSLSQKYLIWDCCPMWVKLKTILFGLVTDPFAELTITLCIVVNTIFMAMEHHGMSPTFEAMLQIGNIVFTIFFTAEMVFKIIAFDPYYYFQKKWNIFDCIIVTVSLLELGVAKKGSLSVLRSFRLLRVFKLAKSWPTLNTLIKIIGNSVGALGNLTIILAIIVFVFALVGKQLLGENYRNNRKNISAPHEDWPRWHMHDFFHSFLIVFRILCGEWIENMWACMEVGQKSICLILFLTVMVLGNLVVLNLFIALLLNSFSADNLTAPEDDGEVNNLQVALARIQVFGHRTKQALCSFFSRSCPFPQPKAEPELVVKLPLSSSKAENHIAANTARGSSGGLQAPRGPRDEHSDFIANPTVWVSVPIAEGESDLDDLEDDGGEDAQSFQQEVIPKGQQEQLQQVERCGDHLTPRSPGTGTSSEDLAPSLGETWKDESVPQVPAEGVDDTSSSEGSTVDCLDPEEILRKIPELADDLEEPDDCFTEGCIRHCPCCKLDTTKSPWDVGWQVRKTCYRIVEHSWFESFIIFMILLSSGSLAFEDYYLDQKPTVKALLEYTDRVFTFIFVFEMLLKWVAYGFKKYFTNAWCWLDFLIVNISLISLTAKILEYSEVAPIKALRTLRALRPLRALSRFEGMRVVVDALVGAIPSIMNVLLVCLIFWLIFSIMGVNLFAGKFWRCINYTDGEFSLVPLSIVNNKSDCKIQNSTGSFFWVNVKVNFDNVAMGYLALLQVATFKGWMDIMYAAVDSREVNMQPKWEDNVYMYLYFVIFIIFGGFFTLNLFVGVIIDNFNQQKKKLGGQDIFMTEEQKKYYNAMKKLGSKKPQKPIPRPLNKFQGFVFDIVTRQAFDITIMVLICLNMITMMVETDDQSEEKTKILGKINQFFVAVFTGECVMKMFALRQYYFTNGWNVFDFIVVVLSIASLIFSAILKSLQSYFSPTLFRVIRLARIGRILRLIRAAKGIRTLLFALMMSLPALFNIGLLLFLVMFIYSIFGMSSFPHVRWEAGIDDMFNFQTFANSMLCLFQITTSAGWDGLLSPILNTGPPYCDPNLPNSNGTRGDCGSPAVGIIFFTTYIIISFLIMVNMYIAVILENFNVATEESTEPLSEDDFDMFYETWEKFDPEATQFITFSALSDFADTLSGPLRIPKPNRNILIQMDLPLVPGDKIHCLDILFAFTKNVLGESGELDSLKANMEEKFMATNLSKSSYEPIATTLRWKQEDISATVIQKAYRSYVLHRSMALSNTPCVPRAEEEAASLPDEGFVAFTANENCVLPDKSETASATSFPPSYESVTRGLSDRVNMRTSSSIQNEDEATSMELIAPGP
procedure-text: VIPR Assay for Nav1.8 Compounds (FRET membrane potential, deltamethrin opener)
Type: cell-based
experimental-setup: VIPR FRET membrane potential assay, deltamethrin opener; average of replicates; read-out: Nav1.8 IC50
Consider the cut-off 3 µM. If the recorded IC50 is strictly smaller, the label is fulfilled; if not, the label is not fulfilled.

{"columns": ["compound", "label-class"],
 "data": [
  ["COc1ccc(Cl)c(-c2ccc(NC(=O)c3nonc3C)nc2N)c1", "fulfilled"],
  ["CCn1nccc1C(=O)Nc1ccc(-c2ccccc2OC(F)(F)F)c(N)n1", "not fulfilled"],
  ["Cc1oncc1C(=O)Nc1ccc(-c2cc(Cl)cc(Cl)c2Cl)c(N)n1", "fulfilled"],
  ["N#Cc1cccc(C(=O)Nc2ccc(-c3ccccc3OC(F)(F)F)c(N)n2)c1", "not fulfilled"],
  ["CCn1nccc1C(=O)Nc1ccc(-c2cc(OC)cc(Cl)c2Cl)c(N)n1", "fulfilled"],
  ["Cn1nccc1C(=O)Nc1ccc(-c2cccc(F)c2Cl)c(N)n1", "not fulfilled"],
  ["COC(C)COc1ccccc1-c1ccc(NC(=O)c2ccnn2C)nc1N (stereo not drawn)", "not fulfilled"],
  ["COc1ccc(F)cc1-c1ccc(NC(=O)c2conc2C)nc1N", "fulfilled"],
  ["COC(C)COc1ccccc1-c1ccc(NC(=O)c2conc2C)nc1N (stereo not drawn)", "not fulfilled"]
]}

* * *

tgt: Human Nav1.8 (Homo sapiens)
Construct: expressed in transfected cells; host or cells: HEK293
procedure-text: VIPR Assay for Nav1.8 Compounds (FRET membrane potential, deltamethrin opener)
Assay type: cell-based
experimental-setup: VIPR FRET membrane potential assay, deltamethrin opener; average of replicates; read-out: Nav1.8 IC50
pIC50: −log10 of the molar value.
endpoint-label: pIC50

{"columns": ["smiles-input", "recorded-value"],
 "data": [
  ["Cn1nccc1C(=O)Nc1ccc(-c2cc(Cl)ccc2OC(F)(F)F)c(N)n1", 5.72],
  ["Cc1nocc1C(=O)Nc1ccc(-c2cccc(C(F)(F)F)c2Cl)c(N)n1", 4.96],
  ["CCn1nccc1C(=O)Nc1ccc(-c2cccc(F)c2Cl)c(N)n1", 5.03],
  ["Cc1nocc1C(=O)Nc1ccc(-c2cccc3c2OCCO3)c(N)n1", 4.96],
  ["COc1cc(Cl)cc(-c2ccc(NC(=O)c3conc3C)nc2N)c1Cl", 6.43],
  ["Cn1ccc(C(=O)Nc2ccc(-c3cc(Cl)cc(Cl)c3Cl)c(N)n2)n1", 4.96],
  ["Cc1oncc1C(=O)Nc1ccc(-c2ccccc2Cl)c(N)n1", 6.00],
  ["Cn1nncc1C(=O)Nc1ccc(-c2cc(Cl)cc(Cl)c2Cl)c(N)n1", 5.62],
  ["Nc1nc(NC(=O)c2ccon2)ccc1-c1ccccc1Cl", 5.38]
]}

* * *

tgt: Human Nav1.8 (Homo sapiens)
Construct: expressed in transfected cells; host or cells: HEK293
procedure-text: VIPR Assay for Nav1.8 Compounds (FRET membrane potential, deltamethrin opener)
Format: cell-based
experimental-setup: VIPR FRET membrane potential assay, deltamethrin opener; average of replicates; read-out: Nav1.8 IC50
Form field: IC50 (one value per entry).

{"columns": ["smiles-input", "unit-of-measurement", "IC50"],
 "data": [
  ["Cn1nccc1C(=O)Nc1ccc(-c2ccccc2OCC2CC2)c(N)n1", "µM", 0.97],
  ["Cc1nocc1C(=O)Nc1ccc(-c2cc(F)ccc2OC(C)C)c(N)n1", "µM", 1.5],
  ["Cc1nonc1C(=O)Nc1ccc(-c2cc(Cl)ccc2Cl)c(N)n1", "µM", 3.2],
  ["Cn1nccc1C(=O)Nc1ccc(-c2ccccc2C(F)(F)F)c(N)n1", "µM", 8.4],
  ["Cc1nonc1C(=O)Nc1ccc(-c2cc(F)ccc2Cl)c(N)n1", "µM", 1.4],
  ["Cn1nccc1C(=O)Nc1ccc(-c2ccc(OC(F)(F)F)cc2)c(N)n1", "µM", 12],
  ["COc1cc(Cl)cc(-c2ccc(NC(=O)c3ccnn3C)nc2N)c1Cl", "µM", 1.6],
  ["Cc1nocc1C(=O)Nc1ccc(-c2cc(F)ccc2O)c(N)n1", "µM", 15],
  ["Cc1nocc1C(=O)Nc1ccc(-c2ccccc2C(F)F)c(N)n1", "µM", 2.5],
  ["Cc1nocc1C(=O)Nc1ccc(-c2ccccc2C(F)(F)F)c(N)n1", "µM", 1.7],
  ["Nc1nc(NC(=O)c2ccccc2)ccc1-c1cc(Cl)ccc1Cl", "µM", 1.9],
  ["Nc1nc(NC(=O)c2ccon2)ccc1-c1cc(Cl)ccc1Cl", "µM", 8.6],
  ["COCCCOc1ccccc1-c1ccc(NC(=O)c2ccnn2C)nc1N", "µM", 9.5],
  ["Cn1nccc1C(=O)Nc1ccc(-c2ccc(OCC(F)(F)F)cc2)c(N)n1", "µM", 19],
  ["Nc1nc(NC(=O)c2ccc(Cl)cc2)ccc1-c1cc(Cl)ccc1Cl", "µM", 6.3],
  ["Cc1nocc1C(=O)Nc1ccc(-c2cc(O)cc(Cl)c2Cl)c(N)n1", "µM", 1.4],
  ["CCCOc1ccc(F)cc1-c1ccc(NC(=O)c2ccnn2C)nc1N", "µM", 0.6],
  ["COc1ccc(Cl)c(-c2ccc(NC(=O)c3conc3C)nc2N)c1", "µM", 0.44],
  ["Cc1nocc1C(=O)Nc1ccc(-c2ccccc2Cl)c(N)n1", "µM", 0.56]
]}

* * *

tgt: Human Nav1.8 (Homo sapiens, UniProt Q9Y5Y9)
Construct: expressed in transfected cells; host or cells: HEK293
procedure-text: VIPR Assay for Nav1.8 Compounds (FRET membrane potential, deltamethrin opener)
Assay type: cell-based
experimental-setup: VIPR FRET membrane potential assay, deltamethrin opener; average of replicates; read-out: Nav1.8 IC50
pIC50: −log10 of the molar value.
endpoint-label: pIC50

{"columns": ["compound", "tgt", "endpoint-label", "relation-sign", "recorded-value"],
 "data": [
  ["Cn1nncc1C(=O)Nc1ccc(-c2ccc(Cl)cc2Cl)c(N)n1", "Human Nav1.8 (Homo sapiens, UniProt Q9Y5Y9)", "pIC50", "=", 5.24],
  ["COc1cc(Cl)c(Cl)c(-c2ccc(NC(=O)c3nonc3C)nc2N)c1", "Human Nav1.8 (Homo sapiens, UniProt Q9Y5Y9)", "pIC50", "=", 6.12],
  ["Cc1nocc1C(=O)Nc1ccc(-c2cc(F)ccc2OC(F)(F)F)c(N)n1", "Human Nav1.8 (Homo sapiens, UniProt Q9Y5Y9)", "pIC50", "=", 6.55],
  ["COCCOc1ccc(F)cc1-c1ccc(NC(=O)c2conc2C)nc1N", "Human Nav1.8 (Homo sapiens, UniProt Q9Y5Y9)", "pIC50", "=", 5.31],
  ["Cn1nncc1C(=O)Nc1ccc(-c2cc(F)ccc2Cl)c(N)n1", "Human Nav1.8 (Homo sapiens, UniProt Q9Y5Y9)", "pIC50", "=", 5.28],
  ["N#Cc1ccccc1C(=O)Nc1ccc(-c2ccccc2OC(F)(F)F)c(N)n1", "Human Nav1.8 (Homo sapiens, UniProt Q9Y5Y9)", "pIC50", "=", 5.60],
  ["Cn1nncc1C(=O)Nc1ccc(-c2ccccc2OC(F)(F)F)c(N)n1", "Human Nav1.8 (Homo sapiens, UniProt Q9Y5Y9)", "pIC50", "=", 5.15],
  ["Cn1nccc1C(=O)Nc1ccc(-c2cc(OC(F)(F)F)ccc2F)c(N)n1", "Human Nav1.8 (Homo sapiens, UniProt Q9Y5Y9)", "pIC50", "=", 5.47],
  ["Cc1n[nH]cc1C(=O)Nc1ccc(-c2ccccc2OC(F)(F)F)c(N)n1", "Human Nav1.8 (Homo sapiens, UniProt Q9Y5Y9)", "pIC50", "=", 4.59],
  ["Cc1nocc1C(=O)Nc1ccc(-c2cc(OC(F)(F)F)ccc2Cl)c(N)n1", "Human Nav1.8 (Homo sapiens, UniProt Q9Y5Y9)", "pIC50", "=", 6.36],
  ["CCn1nccc1C(=O)Nc1ccc(-c2cc(F)ccc2Cl)c(N)n1", "Human Nav1.8 (Homo sapiens, UniProt Q9Y5Y9)", "pIC50", "=", 5.92],
  ["COc1ccc(Cl)c(-c2ccc(NC(=O)c3ccnn3C)nc2N)c1", "Human Nav1.8 (Homo sapiens, UniProt Q9Y5Y9)", "pIC50", "=", 6.05],
  ["COc1ccc(Cl)c(-c2ccc(NC(=O)c3conc3C(F)(F)F)nc2N)c1", "Human Nav1.8 (Homo sapiens, UniProt Q9Y5Y9)", "pIC50", "=", 5.42],
  ["COCCOc1ccc(Cl)c(-c2ccc(NC(=O)c3ccnn3C)nc2N)c1", "Human Nav1.8 (Homo sapiens, UniProt Q9Y5Y9)", "pIC50", "=", 5.29],
  ["COC(C)COc1ccc(F)cc1-c1ccc(NC(=O)c2conc2C)nc1N (stereo not shown)", "Human Nav1.8 (Homo sapiens, UniProt Q9Y5Y9)", "pIC50", "=", 5.33],
  ["CC(C)n1nccc1C(=O)Nc1ccc(-c2ccccc2Cl)c(N)n1", "Human Nav1.8 (Homo sapiens, UniProt Q9Y5Y9)", "pIC50", "=", 5.62],
  ["CCn1nccc1C(=O)Nc1ccc(-c2cc(F)ccc2C(F)(F)F)c(N)n1", "Human Nav1.8 (Homo sapiens, UniProt Q9Y5Y9)", "pIC50", "=", 5.43],
  ["COCc1cc(C(=O)Nc2ccc(-c3ccccc3OC(F)(F)F)c(N)n2)on1", "Human Nav1.8 (Homo sapiens, UniProt Q9Y5Y9)", "pIC50", "<", 4.49],
  ["Cn1nccc1C(=O)Nc1ccc(-c2cc(Cl)ccc2Cl)c(N)n1", "Human Nav1.8 (Homo sapiens, UniProt Q9Y5Y9)", "pIC50", "=", 6.05],
  ["Nc1nc(NC(=O)c2conc2C(F)(F)F)ccc1-c1ccccc1Cl", "Human Nav1.8 (Homo sapiens, UniProt Q9Y5Y9)", "pIC50", "=", 6.29],
  ["Cc1nocc1C(=O)Nc1ccc(-c2cc(Cl)cc3c2OCCO3)c(N)n1", "Human Nav1.8 (Homo sapiens, UniProt Q9Y5Y9)", "pIC50", "=", 5.89],
  ["Nc1nc(NC(=O)c2conc2C(F)(F)F)ccc1-c1cc(F)ccc1Cl", "Human Nav1.8 (Homo sapiens, UniProt Q9Y5Y9)", "pIC50", "=", 6.51],
  ["COc1ccc(Cl)c(-c2ccc(NC(=O)c3ccon3)nc2N)c1", "Human Nav1.8 (Homo sapiens, UniProt Q9Y5Y9)", "pIC50", "=", 5.33],
  ["COc1ccc(Cl)c(-c2ccc(NC(=O)c3cnnn3C)nc2N)c1", "Human Nav1.8 (Homo sapiens, UniProt Q9Y5Y9)", "pIC50", "=", 5.48],
  ["Cc1nocc1C(=O)Nc1ccc(-c2cc(F)ccc2OC2CCOC2)c(N)n1 (stereo not shown)", "Human Nav1.8 (Homo sapiens, UniProt Q9Y5Y9)", "pIC50", "=", 4.96],
  ["CC(C)n1nccc1C(=O)Nc1ccc(-c2ccccc2OC(F)(F)F)c(N)n1", "Human Nav1.8 (Homo sapiens, UniProt Q9Y5Y9)", "pIC50", "=", 5.41],
  ["COCc1cc(C(=O)Nc2ccc(-c3cc(F)ccc3Cl)c(N)n2)on1", "Human Nav1.8 (Homo sapiens, UniProt Q9Y5Y9)", "pIC50", "=", 5.23],
  ["CCn1nccc1C(=O)Nc1ccc(-c2cc(Cl)ccc2OC(F)(F)F)c(N)n1", "Human Nav1.8 (Homo sapiens, UniProt Q9Y5Y9)", "pIC50", "=", 5.37],
  ["COc1cc(Cl)c(Cl)c(-c2ccc(NC(=O)c3conc3C)nc2N)c1", "Human Nav1.8 (Homo sapiens, UniProt Q9Y5Y9)", "pIC50", "=", 6.26],
  ["Cn1nccc1C(=O)Nc1ccc(-c2ccccc2Cl)c(N)n1", "Human Nav1.8 (Homo sapiens, UniProt Q9Y5Y9)", "pIC50", "=", 5.24],
  ["Cn1nccc1C(=O)Nc1ccc(-c2cccc(Cl)c2Cl)c(N)n1", "Human Nav1.8 (Homo sapiens, UniProt Q9Y5Y9)", "pIC50", "=", 5.38],
  ["CCn1nccc1C(=O)Nc1ccc(-c2ccccc2C(F)(F)F)c(N)n1", "Human Nav1.8 (Homo sapiens, UniProt Q9Y5Y9)", "pIC50", "=", 5.37],
  ["Cc1nocc1C(=O)Nc1ccc(-c2cc(Cl)ccc2OCC(F)(F)F)c(N)n1", "Human Nav1.8 (Homo sapiens, UniProt Q9Y5Y9)", "pIC50", "=", 6.32],
  ["CC(C)Oc1ccc(F)cc1-c1ccc(NC(=O)c2ccnn2C)nc1N", "Human Nav1.8 (Homo sapiens, UniProt Q9Y5Y9)", "pIC50", "=", 5.24],
  ["CCn1nccc1C(=O)Nc1ccc(-c2ccc(F)cc2Cl)c(N)n1", "Human Nav1.8 (Homo sapiens, UniProt Q9Y5Y9)", "pIC50", "=", 4.64],
  ["COc1cccc(C(=O)Nc2ccc(-c3cc(Cl)ccc3Cl)c(N)n2)c1", "Human Nav1.8 (Homo sapiens, UniProt Q9Y5Y9)", "pIC50", "=", 5.64],
  ["Nc1nc(NC(=O)c2ccccc2)ccc1-c1ccccc1OC(F)(F)F", "Human Nav1.8 (Homo sapiens, UniProt Q9Y5Y9)", "pIC50", "=", 5.49]
]}
